B1: TRIM39 (parent)
chain: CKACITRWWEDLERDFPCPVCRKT

variants of: B1; assay: protein stability index of a GFP-peptide fusion (GPS, HEK-293T) (PSI 1-6); higher = more stable; conditions: c terminus: a fixed tail appended;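 note: lentivirally expressed fusions sorted by FACS into six bins by GFP to DsRed ratio, PSI derived from sequencing read proportions per bin multiplied by bin number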
Listed variants paired with reported protein stability index
Respond using a number only.

Some solved entries appear below for comparison.
var: D11P
reported measurement: 3.93
//
var: F16E
reported measurement: 4.66
//
var: P17K
reported measurement: 4.06
//
var: R14D
reported measurement: 3.99
//
var: W9I
reported measurement: 3.65

Let us move to another entry and its protein stability index.
Task: Which protein stability index reading was recorded for the variant C21N ?
Output: 2.39
